- system tested: All-trans-retinol dehydrogenase [NAD(+)] ADH1B (Homo sapiens)
- Sequence (P00325 whole entry): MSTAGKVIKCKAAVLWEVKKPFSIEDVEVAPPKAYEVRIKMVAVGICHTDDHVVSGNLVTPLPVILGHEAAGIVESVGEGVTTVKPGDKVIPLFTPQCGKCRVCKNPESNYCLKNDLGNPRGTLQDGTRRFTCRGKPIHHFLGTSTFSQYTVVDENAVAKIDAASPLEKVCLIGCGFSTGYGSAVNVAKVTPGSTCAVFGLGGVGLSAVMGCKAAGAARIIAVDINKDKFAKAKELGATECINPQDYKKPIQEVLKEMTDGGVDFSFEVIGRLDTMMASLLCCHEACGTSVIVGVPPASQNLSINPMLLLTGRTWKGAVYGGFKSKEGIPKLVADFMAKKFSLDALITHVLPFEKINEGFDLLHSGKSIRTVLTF
quantity name: pKi
Interpret pKi as the negative base-10 log of the concentration measured in mol/L.

CCCCCCCNC=O [HEPTYLFORMAMIDE] | 6.48

# get_value(readout= pKi, system= All-trans-retinol dehydrogenase [NAD(+)] ADH1B (Homo sapiens)) for CC(C)NC=O
4.72

# get_value(readout= pKi, system= All-trans-retinol dehydrogenase [NAD(+)] ADH1B (Homo sapiens)) for O=CN(C1CCCC1)C1CCC1 [CYCLOBUTYL(CYCLOPENTYL)FORMAMIDE]
2.00

# get_value(readout= pKi, system= All-trans-retinol dehydrogenase [NAD(+)] ADH1B (Homo sapiens)) for O=CNC1CC1
5.19

###

- system tested: All-trans-retinol dehydrogenase [NAD(+)] ADH7 (Homo sapiens)
- run description: Inhibition of human alcohol dehydrogenase sigma activity
pKi: −log10 of the molar value.
Think of 3 as a floor: if pKi stands on it or above, it is 1 (yes); beneath it, 0 (no).

CCCCCCCNC=O [HEPTYLFORMAMIDE] | 1 (yes)
O=CN(C1CCC1)C1CCC1 | 0 (no)

Assess whether reported pKi for CC(C)N(C=O)C1CCCCC1 sits at 3 or higher.
0 (no)

Assess whether reported pKi for O=CNCC1CCCCC1 sits at 3 or higher.
1 (yes)

Assess whether reported pKi for O=CNC1CC1 sits at 3 or higher.
1 (yes)

###

Parameter 'readout' = pKi; parameter 'system' = All-trans-retinol dehydrogenase [NAD(+)] ADH4 (Homo sapiens).
Sequence (P08319 whole entry): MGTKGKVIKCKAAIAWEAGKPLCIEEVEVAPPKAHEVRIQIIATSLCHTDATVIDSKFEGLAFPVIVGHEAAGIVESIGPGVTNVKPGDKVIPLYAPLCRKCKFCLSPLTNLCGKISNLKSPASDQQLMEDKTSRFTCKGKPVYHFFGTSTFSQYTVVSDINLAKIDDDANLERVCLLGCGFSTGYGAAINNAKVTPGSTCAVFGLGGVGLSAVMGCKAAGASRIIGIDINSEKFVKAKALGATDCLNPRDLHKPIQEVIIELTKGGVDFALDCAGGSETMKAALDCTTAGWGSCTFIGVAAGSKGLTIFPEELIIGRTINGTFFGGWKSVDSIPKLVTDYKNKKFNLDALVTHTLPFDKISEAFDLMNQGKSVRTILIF
Interpret pKi as the negative base-10 log of the concentration measured in mol/L.

CCCCCCCNC=O [HEPTYLFORMAMIDE] | 4.96
O=CNC1CC1 | 2.28
CC(C)CNC=O | 3.47
O=CN(C1CCCC1)C1CCC1 [CYCLOBUTYL(CYCLOPENTYL)FORMAMIDE] | 3.44
O=CNC1CCC1 | 3.35
O=CNCC1CCCCC1 | 5.15

Could you now consider this next molecule?
# get_value(readout= pKi, system= All-trans-retinol dehydrogenase [NAD(+)] ADH4 (Homo sapiens)) for CCCN(C=O)C1CCCC1
3.72

###

Parameter 'readout' = Ki; parameter 'system' = Alcohol dehydrogenase 1C (Homo sapiens).
Sequence (P00326 whole entry): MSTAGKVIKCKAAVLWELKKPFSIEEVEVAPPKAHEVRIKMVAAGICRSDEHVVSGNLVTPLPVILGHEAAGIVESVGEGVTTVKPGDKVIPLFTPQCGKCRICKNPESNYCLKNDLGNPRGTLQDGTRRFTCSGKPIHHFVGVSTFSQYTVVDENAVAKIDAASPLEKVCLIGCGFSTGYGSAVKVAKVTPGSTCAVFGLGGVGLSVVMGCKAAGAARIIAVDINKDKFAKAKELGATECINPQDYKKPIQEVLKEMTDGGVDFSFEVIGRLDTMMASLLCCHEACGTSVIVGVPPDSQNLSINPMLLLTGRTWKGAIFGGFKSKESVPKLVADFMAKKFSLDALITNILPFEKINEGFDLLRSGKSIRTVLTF
Just the number in µM, nothing appended.

// solved cases for Ki follow
O=CN(C1CCC1)C1CCC1 | 19
O=CN(C1CCCC1)C1CCC1 [CYCLOBUTYL(CYCLOPENTYL)FORMAMIDE] | 47
O=CNC1CC1 | 700
CCN(C=O)C1CCCCC1 | 33
CN(C=O)C1CCCCC1 | 40

Would you kindly share the measured Ki for O=CN(C1CCCC1)C1CCCC1 ?
1000

Would you kindly share the measured Ki for CCCNC=O ?
120

Would you kindly share the measured Ki for O=CN(C1CCCCC1)C1CC1 ?
120

###

Parameter 'readout' = pKi; parameter 'system' = Alcohol dehydrogenase 1A (Homo sapiens, UniProt P07327).
Sequence (P07327 whole entry): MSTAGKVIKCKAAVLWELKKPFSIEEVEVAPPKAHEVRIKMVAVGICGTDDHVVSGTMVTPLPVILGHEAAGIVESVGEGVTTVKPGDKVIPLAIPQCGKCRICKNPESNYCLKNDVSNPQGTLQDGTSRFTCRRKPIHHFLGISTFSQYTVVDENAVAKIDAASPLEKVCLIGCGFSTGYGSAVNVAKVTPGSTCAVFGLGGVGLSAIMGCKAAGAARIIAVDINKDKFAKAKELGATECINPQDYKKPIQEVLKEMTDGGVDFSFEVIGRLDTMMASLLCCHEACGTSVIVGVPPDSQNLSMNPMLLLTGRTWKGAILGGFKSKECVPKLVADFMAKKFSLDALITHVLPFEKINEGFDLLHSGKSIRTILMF
Interpret pKi as the negative base-10 log of the concentration measured in mol/L.

// solved cases for pKi follow
CC(C)NC=O | 4.66
O=CNC1CCCCC1 [CYCLOHEXYLFORMAMIDE] | 5.64
CCCCCCCNC=O [HEPTYLFORMAMIDE] | 5.44

# get_value(readout= pKi, system= Alcohol dehydrogenase 1A (Homo sapiens, UniProt P07327)) for O=CN(C1CCCCC1)C1CC1
5.23

# get_value(readout= pKi, system= Alcohol dehydrogenase 1A (Homo sapiens, UniProt P07327)) for CCCCCCCN(C=O)C1CC1
5.72

# get_value(readout= pKi, system= Alcohol dehydrogenase 1A (Homo sapiens, UniProt P07327)) for CCCCNC=O
5.14

###

- system tested: Alcohol dehydrogenase (Equus caballus, UniProt P00327+P00328)
- run description: Inhibition of horse liver alcohol dehydrogenase activity
quantity name: Ki (µM)
Just the number in µM, nothing appended.

O=CNC1CCCC1 | 7.6
O=CN(C1CCCC1)C1CCC1 [CYCLOBUTYL(CYCLOPENTYL)FORMAMIDE] | 8600
O=CN(C1CCC1)C1CCC1 | 7200

# get_value(readout= Ki, system= Alcohol dehydrogenase (Equus caballus, UniProt P00327+P00328)) for O=CN(C1CCCCC1)C1CC1
440

# get_value(readout= Ki, system= Alcohol dehydrogenase (Equus caballus, UniProt P00327+P00328)) for CCCCNC=O
16

# get_value(readout= Ki, system= Alcohol dehydrogenase (Equus caballus, UniProt P00327+P00328)) for O=CNCC1CCCCC1
12

# get_value(readout= Ki, system= Alcohol dehydrogenase (Equus caballus, UniProt P00327+P00328)) for CN(C=O)C1CCCCC1
600

# get_value(readout= Ki, system= Alcohol dehydrogenase (Equus caballus, UniProt P00327+P00328)) for O=CN(C1CCCC1)C1CC1
110

###

- system tested: All-trans-retinol dehydrogenase [NAD(+)] ADH7 (Homo sapiens, UniProt P40394)
- Sequence (P40394 whole entry): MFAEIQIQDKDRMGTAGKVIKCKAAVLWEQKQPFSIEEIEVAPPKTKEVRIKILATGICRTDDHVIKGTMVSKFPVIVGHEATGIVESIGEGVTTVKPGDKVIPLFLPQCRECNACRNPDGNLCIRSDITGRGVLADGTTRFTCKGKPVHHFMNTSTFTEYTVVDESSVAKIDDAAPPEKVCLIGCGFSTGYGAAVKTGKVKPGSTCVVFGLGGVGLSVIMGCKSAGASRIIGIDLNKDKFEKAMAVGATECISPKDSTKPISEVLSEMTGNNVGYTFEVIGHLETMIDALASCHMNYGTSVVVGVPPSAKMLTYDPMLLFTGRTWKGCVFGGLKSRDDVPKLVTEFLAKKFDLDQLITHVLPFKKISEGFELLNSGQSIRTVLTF
- run description: Inhibition of human alcohol dehydrogenase sigma activity
quantity name: Ki (µM)
Just the number in µM, nothing appended.

// solved cases for Ki follow
O=CN(C1CCCC1)C1CCC1 [CYCLOBUTYL(CYCLOPENTYL)FORMAMIDE] | 1100
CCCCCCCN(C=O)C1CC1 | 960

Would you kindly share the measured Ki for CCCNC=O ?
21

Would you kindly share the measured Ki for CC(C)CNC=O ?
180

Would you kindly share the measured Ki for CC(C)NC=O ?
210

###

Parameter 'readout' = pKi; parameter 'system' = All-trans-retinol dehydrogenase [NAD(+)] ADH4 (Homo sapiens).
Interpret pKi as the negative base-10 log of the concentration measured in mol/L.

// solved cases for pKi follow
CN(C=O)C1CCCCC1 | 3.92
CCCCNC=O | 3.96
O=CN(C1CCC1)C1CCC1 | 3.55

Could you now consider this next compound?
Would you kindly share the measured pKi for O=CNC1CCCCC1 [CYCLOHEXYLFORMAMIDE] ?
4.08

###

- system tested: Alcohol dehydrogenase 1C (Homo sapiens)
Recorded measurements of Ki, one per entry

// solved cases for Ki follow
CCCCCCCNC=O [HEPTYLFORMAMIDE] | 12 µM
CC(C)CNC=O | 54 µM
CCCCCCCN(C=O)C1CC1 | 2.1 µM

Could you now consider this next compound?
# get_value(readout= Ki, system= Alcohol dehydrogenase 1C (Homo sapiens)) for O=CNC1CCCCC1 [CYCLOHEXYLFORMAMIDE]
5.2 µM

###

Parameter 'readout' = pKi; parameter 'system' = UniProtKB P07327.
Interpret pKi as the negative base-10 log of the concentration measured in mol/L.

# get_value(readout= pKi, system= UniProtKB P07327) for CCCN(C=O)C1CCCC1
5.35

# get_value(readout= pKi, system= UniProtKB P07327) for CCN(C=O)C1CCCCC1
5.35

###

- system tested: Alcohol dehydrogenase (Equus caballus, UniProt P00327+P00328)
- run description: Inhibition of horse liver alcohol dehydrogenase activity
Labelling: Ki reported below 100 µM becomes Yes; at or above becomes No.

# count of solved cases: 4
CCCN(C=O)C1CCCCC1 | No
CC(C)CNC=O | Yes
CCCCCCCNC=O [HEPTYLFORMAMIDE] | Yes
CCCNC=O | Yes

Dear reviewer, please state whether O=CN(C1CCCC1)C1CCCC1 has Ki strictly beneath 100 µM.
No

Dear reviewer, please state whether CC(C)NC=O has Ki strictly beneath 100 µM.
Yes

Dear reviewer, please state whether CCCCCCCN(C=O)C1CC1 has Ki strictly beneath 100 µM.
No

Dear reviewer, please state whether O=CNC1CCC1 has Ki strictly beneath 100 µM.
Yes

###

- system tested: All-trans-retinol dehydrogenase [NAD(+)] ADH7 (Homo sapiens)
- run description: Inhibition of human alcohol dehydrogenase sigma activity
pKi: −log10 of the molar value.
Think of 3 as a floor: if pKi stands on it or above, it is Condition met; beneath it, Condition not met.

CN(C=O)C1CCCCC1 | Condition not met
CCCN(C=O)C1CCCC1 | Condition not met
O=CN(C1CCCCC1)C1CC1 | Condition met
O=CNC1CCCCC1 [CYCLOHEXYLFORMAMIDE] | Condition met
CCCCCCC(C)NC=O (stereo not drawn) | Condition met
O=CNC1CCCC1 | Condition met

Assess whether reported pKi for CCCCNC=O sits at 3 or higher.
Condition met

###

Parameter 'readout' = pKi; parameter 'system' = UniProt P07327.
Interpret pKi as the negative base-10 log of the concentration measured in mol/L.

// solved cases for pKi follow
CC(C)CNC=O | 5.26
CN(C=O)C1CCCCC1 | 5.26

Could you now consider this next molecule?
# get_value(readout= pKi, system= UniProt P07327) for O=CN(C1CCCC1)C1CCC1 [CYCLOBUTYL(CYCLOPENTYL)FORMAMIDE]
6.44
